# measurement protocol: in vitro
# Assay type: in vitro ADME, mouse
# condition context: pH 7.4; mouse microsomes; read-out: t1/2 in mouse microsomes
Entries and their half-life

Consider the reported half-life for these compounds:
COc1ccc(-c2cc(CN3CCSCC3)c(C)n2-c2ccc(F)cc2)cc1: < 5 min
CCCc1ccc(-c2cc(CN3CCOCC3)c(C)n2-c2ccc(Cl)cc2)cc1: > 30 min
Cc1c(CN2CCOCC2)cc(-c2ccc(C(C)C)cc2)n1-c1ccc(Cl)cc1: > 30 min
Cc1c(CN2CCOCC2)cc(-c2ccc(C(C)C)cc2)n1-c1ccc(F)cc1: > 30 min
CCc1ccc(-c2cc(CN3CCOCC3)c(C)n2-c2ccc(OC)cc2)cc1: < 5 min
COc1ccc(-c2cc(CN3CCOCC3)c(C)n2-c2ccc(C)cc2)cc1: < 5 min

Give the measured half-life of `COc1ccc(-n2c(-c3ccc(C)cc3)cc(CN3CCOCC3)c2C)cc1` .
< 5 min

Can you share its half-life? I mean this compound: `CCCc1ccc(-n2c(-c3ccc(Cl)cc3)cc(CN3CCOCC3)c2C)cc1`
> 30 min
